- experimental_target: human recombinant P2X7 receptor (Homo sapiens, UniProt Q99572)
- Sequence (Q99572 1-595): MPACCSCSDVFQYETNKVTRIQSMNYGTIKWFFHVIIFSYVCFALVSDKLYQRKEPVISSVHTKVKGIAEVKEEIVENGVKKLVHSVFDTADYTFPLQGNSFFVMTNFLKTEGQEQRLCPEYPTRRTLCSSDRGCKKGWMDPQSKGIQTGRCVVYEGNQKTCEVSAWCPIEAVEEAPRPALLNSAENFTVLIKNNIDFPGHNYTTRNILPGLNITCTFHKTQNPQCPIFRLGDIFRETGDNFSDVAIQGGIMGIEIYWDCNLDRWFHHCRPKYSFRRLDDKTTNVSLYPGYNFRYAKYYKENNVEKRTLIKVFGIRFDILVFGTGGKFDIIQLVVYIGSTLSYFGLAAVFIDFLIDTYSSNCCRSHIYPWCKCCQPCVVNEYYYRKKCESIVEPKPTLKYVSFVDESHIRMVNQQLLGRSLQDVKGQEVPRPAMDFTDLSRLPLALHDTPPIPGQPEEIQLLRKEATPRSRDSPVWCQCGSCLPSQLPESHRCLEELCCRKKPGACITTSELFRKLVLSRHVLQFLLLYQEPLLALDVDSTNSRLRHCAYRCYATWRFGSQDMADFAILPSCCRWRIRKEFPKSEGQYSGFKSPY
- assay_name: YO-PRO assay (YO-PRO-1 uptake) in HEK cells stably expressing P2X7
- details: HEK-293 cells expressing human recombinant P2X7 receptor; ATP 250 μM, 90 minutes; YO-PRO-1 fluorescence (FLIPR tetra); read-out: IC50 (antagonistic activity with respect to the P2X7 receptor)
pIC50: −log10 of the molar value.
endpoint_label: pIC50

query_smiles=O=C(NCC1(O)CCCCC1)c1cc(Oc2cccc(Cl)n2)ccc1Cl obs_value=7.19
query_smiles=COc1nccc(N(Cc2ccccc2)c2ccc(Cl)c(C(=O)NCC3(O)CCCCC3)c2)n1 obs_value=6.25
query_smiles=CSc1nccc(Cc2ccc(Cl)c(C(=O)NCC3(O)CCCCC3)c2)n1 obs_value=6.40
query_smiles=CNc1cccc(Oc2ccc(Cl)c(C(=O)NCC3(O)CCCCC3)c2)n1 obs_value=7.28
query_smiles=O=C(NCC1(O)CCCCC1)c1cc(Oc2ccc(Cl)nn2)ccc1Cl obs_value=7.24
query_smiles=COc1nccc(N(CCOc2ccccc2)c2ccc(Cl)c(C(=O)NCC3(O)CCCCC3)c2)n1 obs_value=6.23
query_smiles=CN(c1ccc(Cl)c(C(=O)NCC2(O)CCCCC2)c1)c1cnccn1 obs_value=6.45
query_smiles=CN(c1ccc(Cl)c(C(=O)NCC2(O)CCCCC2)c1)c1cc(Cl)[nH]c(=O)n1 obs_value=6.04
query_smiles=O=C(NCC1(O)CCCCC1)c1cc(Oc2cccnc2)ccc1Cl obs_value=7.15
query_smiles=CN(c1ccc(Cl)c(C(=O)NCC2(CO)CCCCC2)c1)c1ccnc(=O)[nH]1 obs_value=7.13
query_smiles=O=C(NCC1(O)CCCCC1)c1cc(Sc2cc[nH]c(=O)n2)ccc1Cl obs_value=8.09
query_smiles=COc1ccc(N(C)c2ccc(Cl)c(C(=O)NCC3(O)CCCCC3)c2)nn1 obs_value=6.45
query_smiles=O=C(NCC1(O)CCCCC1)c1cc(Oc2ccnc(Cl)c2)ccc1Cl obs_value=7.00
query_smiles=COc1cnnc(Oc2ccc(Cl)c(C(=O)NCC3(O)CCCCC3)c2)c1 obs_value=6.69
query_smiles=O=C(NCC1(O)CCCCC1)c1cc(Oc2cncc(=O)[nH]2)ccc1Cl obs_value=6.34
query_smiles=CN(c1ccc(Cl)c(C(=O)NCC2(CO)CCCCC2)c1)c1ccnc(Cl)n1 obs_value=6.32
query_smiles=CN(c1ccc(Cl)c(C(=O)NCC2(O)CCCCC2)c1)c1nccnc1Cl obs_value=7.21
query_smiles=CCN(c1ccc(Cl)c(C(=O)NCC2(O)CCCCC2)c1)c1cc[nH]c(=O)n1 obs_value=7.77
query_smiles=O=C(NCC1(O)CCCCC1)c1cc(Oc2ccnc(=O)[nH]2)ccc1Cl obs_value=6.10
query_smiles=CC(C)N(c1ccc(Cl)c(C(=O)NCC2(O)CCCCC2)c1)c1cc[nH]c(=O)n1 obs_value=6.96
query_smiles=CN(c1ccc(Cl)c(C(=O)NCC2(O)CCCCC2)c1)c1ccc(=O)[nH]n1 obs_value=6.04
query_smiles=Cc1ccc(N(C)c2cc[nH]c(=O)n2)cc1C(=O)NCC1(O)CCCCC1 obs_value=6.70
query_smiles=CN(c1ccc(Cl)c(C(=O)NCC2(O)CCC(F)(F)CC2)c1)c1ccnc(Cl)n1 obs_value=6.67
query_smiles=Cc1ccc(N(C)c2ccnc(Cl)n2)cc1C(=O)NCC1(O)CCCCC1 obs_value=6.15
query_smiles=CSc1nccc(Nc2ccc(Cl)c(C(=O)N[C@H](C)C3CCCCC3)c2)n1 obs_value=5.74
query_smiles=CN(c1ccc(Cl)c(C(=O)NCC2(O)CCCCC2)c1)c1cc(Cl)nc(Cl)n1 obs_value=6.38
query_smiles=CN(c1ccc(Cl)c(C(=O)NCC2(O)CCCCC2)c1)c1ccnn1C obs_value=6.50
query_smiles=O=C(NCC1(O)CCCCC1)c1cc(Nc2cncnc2)ccc1Cl obs_value=6.38
query_smiles=O=C(NCC1(O)CCCCC1)c1cc(N(Cc2ccccc2)c2cc[nH]c(=O)n2)ccc1Cl obs_value=6.74
query_smiles=CN(c1ccc(Cl)c(C(=O)NCC2(O)CCCCC2)c1)c1cnc(Cl)cn1 obs_value=6.72
query_smiles=O=C(NCC1(O)CCCCC1)c1cc(C(F)(F)c2cc[nH]c(=O)n2)ccc1Cl obs_value=7.51
query_smiles=O=C(NCC1(O)CCCCC1)c1cc(S(=O)(=O)c2ccccn2)ccc1Cl obs_value=6.98
query_smiles=O=C(NCC1(O)CCCCC1)c1cc(Nc2ccc(F)cc2F)ccc1Cl obs_value=6.81
query_smiles=CCCN(c1ccc(Cl)c(C(=O)NCC2(O)CCCCC2)c1)c1cc[nH]c(=O)n1 obs_value=7.74
query_smiles=CN(c1ccc(Cl)c(C(=O)NCC2(O)CCCCC2)c1)c1cccc(=O)[nH]1 obs_value=6.45
